Would you kindly list Average duplex melting temp. for each of these substances?
Tested on: yeast HSP78 (YDR258C) sequence
protocolSummary: Duplex melting temperatures of HSP78 25-mer capture probes (UV spectrophotometer)
cond: 25-mer capture probe duplex with complementary target; design PM = perfectly matched, MM = single mismatch; DNA, LNA_T (T) or LNA_TC (TC) substituted
l = locked nucleic acid (LNA); [5mC] = 5-methylcytosine; d = 2'-deoxy (DNA)
Give bare numbers, in °C.

# substance, assaySystem, Average duplex melting temp. / °C
measured = [
    ("12710 (DNA CCGATTAAACGACAGACAGTATGCT; sugars from the 5' end ddddlldddddddddddddldlddd, backbone not given here) [compound 12710]", "yeast HSP78 (YDR258C) sequence", 63.5),
]

Please examine the following record next.
Field request: Average duplex melting temp. | item: 12803 (DNA TTGGAAACATCGGGGTGCGCTTTTT; sugars from the 5' end lldddddlddlddddldldddldld, [5mC] at 8, 11, 18, backbone not given here; further chemistry not fully specified) [compound 12803] 80.8
